Reported apparent KD of MS2 coat protein values are given for each entry in this list.
# Test system: MS2 coat protein
# assay_name: apparent KD of MS2 coat protein; designed switch direction (-1 OFF switch, 1 ON switch): -1; higher = weaker reporter binding
# conditions_used: input ligand: none
outcome_measure: apparent KD of MS2 coat protein (nM)

{"polymer_sequence": "AAGAUUCUCAUGAGCUGGAACAUGAGGAUCACCCAUGUGUGUUGCUUUUUGCUCAAGGAAUCCAUUUCGAUCUUAUA [Eternabot (L1) Solution 43] (Eterna round: R97, puzzle: Sensor, turn-off variant 1)", "outcome_measure": "apparent KD of MS2 coat protein", "unit_info": "nM", "numeric_result": 71.8}
{"polymer_sequence": "UGUCAGAUGGUAGGAUAUCUAUAUCGAGUGACCCUUUCAUAACAUGAGGAUCACCCAUGUCGGUGGGAGAAGGGCCGUAUGGUG [salish99_ExNG02_R04_029] (Eterna round: R96, puzzle: Exclusion NG 2)", "outcome_measure": "apparent KD of MS2 coat protein", "unit_info": "nM", "numeric_result": 28.5}
{"polymer_sequence": "UCUGGUCGAGGAUAUACAUGAGGAUCACCCAUGUGGUCACGUGACUUCGGUCACGAAUGUAGAAGGCGACCAGA [E3/3-A6] (Eterna round: R97, puzzle: Exclusion 3)", "outcome_measure": "apparent KD of MS2 coat protein", "unit_info": "nM", "numeric_result": 51}
{"polymer_sequence": "UUUUUAUAUGAAGGAUAUACUUAACAUGAGGAUCACCCAUGUGGUGUUGUGAGUGAGUGAGUUUAGUAGAAGGUCAAUUCGUUU [JMF's solution 80] (Eterna round: R96, puzzle: Exclusion NG 2)", "outcome_measure": "apparent KD of MS2 coat protein", "unit_info": "nM", "numeric_result": 356}
{"polymer_sequence": "UCUCGACAUGAGGAUCACCCAUGUCAGGAUAUUGUGUUUGAGGUUUUUUACCUUUUGGCAAGAAGGGAUGUGUG [LRO-Excl1-21] (Eterna round: R96, puzzle: Exclusion 1)", "outcome_measure": "apparent KD of MS2 coat protein", "unit_info": "nM", "numeric_result": 27.7}
